# TARGET OR SYSTEM: Serine/threonine-protein kinase PAK 4 (Homo sapiens, UniProt O96013)
# Sequence (O96013 whole entry): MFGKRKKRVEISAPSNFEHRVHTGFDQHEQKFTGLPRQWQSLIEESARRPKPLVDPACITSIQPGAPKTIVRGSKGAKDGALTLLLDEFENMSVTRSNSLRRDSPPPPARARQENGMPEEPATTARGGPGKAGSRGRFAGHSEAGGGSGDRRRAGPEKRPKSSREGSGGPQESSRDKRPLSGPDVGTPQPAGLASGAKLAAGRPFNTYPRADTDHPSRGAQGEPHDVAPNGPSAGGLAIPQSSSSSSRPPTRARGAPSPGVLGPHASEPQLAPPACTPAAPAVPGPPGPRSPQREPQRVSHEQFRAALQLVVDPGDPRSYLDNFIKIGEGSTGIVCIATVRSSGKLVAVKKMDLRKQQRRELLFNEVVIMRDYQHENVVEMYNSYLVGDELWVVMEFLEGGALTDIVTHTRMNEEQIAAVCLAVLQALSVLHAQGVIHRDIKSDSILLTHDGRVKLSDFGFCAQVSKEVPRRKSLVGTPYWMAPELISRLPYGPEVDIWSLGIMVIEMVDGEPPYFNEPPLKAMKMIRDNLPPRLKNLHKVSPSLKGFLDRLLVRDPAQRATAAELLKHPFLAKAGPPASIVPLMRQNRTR
# METHOD NOTES: Inhibition of PAK4 (unknown origin) by ADP hunter plus assay
OBSERVABLE: IC50

Inquiry: Test system Serine/threonine-protein kinase PAK 4 (Homo sapiens, UniProt O96013); read-out IC50; what value for COc1nc(C)nc2[nH]cc(-c3ccncc3)c12 ?
Reply text: > 50 µM

###

Documented pKi across a set of compounds
# TARGET OR SYSTEM: Dual specificity tyrosine-phosphorylation-regulated kinase 1A (Homo sapiens, UniProt Q13627)
Scale for pKi: -log10 of concentration given in mol/L; no unit attached.

Completed entries (count: 4):
COc1ccc(-c2cc(N)[nH]n2)cc1; 5.21
Cc1ccc(/C=C2/C(=O)Nc3ccccc32)o1; 5.36
Nc1nc2[nH]ccc2c(=O)[nH]1; 5.82
O=c1[nH]cnc2[nH]nc(-c3ccccc3)c12; 5.64

Inquiry: Entry COc1nc(C)nc2[nH]cc(-c3ccc(F)cc3)c12 : reported pKi = ?
Reply text: 4.60

Inquiry: // returns reported pKi for input COc1ccc(-c2cc(N)nc(N)n2)cc1
Reply text: 7.00

Inquiry: Look at this compound and give its reported pKi. Nc1ncc(Cl)c2sccc12
Reply text: 5.82
